tested on: KM12; assay: NCI tumour cell line growth inhibition, 48 h
Activity calls are given as the source filed them. Cut-off read from the data, not from the text of the source: active = GI50 up to about 1.1 µM and inactive = higher.
The reply should name one outcome from yes for active, no for inactive

Answered cases to consult:
[
  {
    "COMPOUND": "c1ccc(C(c2ccccc2)c2cccnc2)cc1",
    "QUALITATIVE LABEL": "no"
  },
  {
    "COMPOUND": "O=C1/C(=C(/Br)I)c2ccccc2-c2ccccc21",
    "QUALITATIVE LABEL": "no"
  },
  {
    "COMPOUND": "CCN1C(=O)/C(=C/Nc2ccccc2)S/C1=N/Nc1nc(-c2ccc(O)c(O)c2)cs1",
    "QUALITATIVE LABEL": "no"
  },
  {
    "COMPOUND": "CC(C)=Nn1cnc2c1=NC(C)(C)NC=2C(N)=O",
    "QUALITATIVE LABEL": "no"
  }
]

Then this compound:
Recorded test outcome, item CC1=N/C(=C\c2ccc(/C=C3/N=C(C)OC3=O)cc2)C(=O)O1
no
